# system: T1, alpha-s1 casein from Bos taurus
# T1 chain: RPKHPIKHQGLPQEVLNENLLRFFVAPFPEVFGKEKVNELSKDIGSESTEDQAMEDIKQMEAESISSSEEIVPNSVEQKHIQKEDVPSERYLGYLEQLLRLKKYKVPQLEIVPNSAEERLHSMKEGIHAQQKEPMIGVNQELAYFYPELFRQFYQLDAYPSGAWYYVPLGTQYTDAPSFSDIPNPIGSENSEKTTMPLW
metric_name: (αSN1-1)/(αSN1), 6 hours, 11° C.
Could you respond with only the numeric value?

camel chymosin variant #147 (Q288H) (protein) GKVAREPLTSYLDSQYFGKIYIGTPPQEFTVVFDTGSSDLWVPSIYCKSNVCKNHHRFDPRKSSTFRNLGKPLSIHYGTGSMEGFLGYDTVTVSNIVDPNQTVGLSTEQPGEVFTYSEFDGILGLAYPSLASEYSVPVFDNMMDRHLVARDLFSVYMDRNGQGSMLTLGAIDPSYYTGSLHWVPVTLQQYWQFTVDSVTINGVAVACVGGCQAILDTGTSVLFGPSSDILKIQMAIGATENRYGEFDVNCGNLRSMPTVVFEINGRDYPLSPSAYTSKDQGFCTSGFHGDNNSELWILGDVFIREYYSVFDRANNRVGLAKAI : 1.1

Data request, read-out (αSN1-1)/(αSN1), 6 hours, 11° C., for camel chymosin variant #157 (D290T) (protein) GKVAREPLTSYLDSQYFGKIYIGTPPQEFTVVFDTGSSDLWVPSIYCKSNVCKNHHRFDPRKSSTFRNLGKPLSIHYGTGSMEGFLGYDTVTVSNIVDPNQTVGLSTEQPGEVFTYSEFDGILGLAYPSLASEYSVPVFDNMMDRHLVARDLFSVYMDRNGQGSMLTLGAIDPSYYTGSLHWVPVTLQQYWQFTVDSVTINGVAVACVGGCQAILDTGTSVLFGPSSDILKIQMAIGATENRYGEFDVNCGNLRSMPTVVFEINGRDYPLSPSAYTSKDQGFCTSGFQGTNNSELWILGDVFIREYYSVFDRANNRVGLAKAI 0.6
